targetUnderTest: CDK7/cyclinH/MAT1 trimeric complex (Homo sapiens, UniProt P50613)
Sequence (P50613 whole entry): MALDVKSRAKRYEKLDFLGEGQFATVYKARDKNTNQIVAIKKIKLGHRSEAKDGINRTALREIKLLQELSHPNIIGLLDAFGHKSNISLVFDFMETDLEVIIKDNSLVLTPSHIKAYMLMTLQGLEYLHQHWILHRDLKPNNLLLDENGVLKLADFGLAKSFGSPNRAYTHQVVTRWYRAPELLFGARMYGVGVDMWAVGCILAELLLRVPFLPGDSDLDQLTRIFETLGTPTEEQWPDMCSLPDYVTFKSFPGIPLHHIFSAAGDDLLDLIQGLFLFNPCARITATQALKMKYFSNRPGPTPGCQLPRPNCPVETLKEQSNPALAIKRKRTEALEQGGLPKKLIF
Sequence (P51946 whole entry partner): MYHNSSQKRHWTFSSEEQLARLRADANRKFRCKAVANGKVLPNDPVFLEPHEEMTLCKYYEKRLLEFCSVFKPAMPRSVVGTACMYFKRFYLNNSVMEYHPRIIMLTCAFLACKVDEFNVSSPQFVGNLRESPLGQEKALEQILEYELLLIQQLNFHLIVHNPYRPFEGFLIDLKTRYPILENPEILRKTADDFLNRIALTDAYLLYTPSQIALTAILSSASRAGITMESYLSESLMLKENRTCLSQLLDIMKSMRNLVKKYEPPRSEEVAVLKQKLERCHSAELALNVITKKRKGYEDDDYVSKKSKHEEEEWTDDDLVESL
Sequence (P51948 whole entry partner): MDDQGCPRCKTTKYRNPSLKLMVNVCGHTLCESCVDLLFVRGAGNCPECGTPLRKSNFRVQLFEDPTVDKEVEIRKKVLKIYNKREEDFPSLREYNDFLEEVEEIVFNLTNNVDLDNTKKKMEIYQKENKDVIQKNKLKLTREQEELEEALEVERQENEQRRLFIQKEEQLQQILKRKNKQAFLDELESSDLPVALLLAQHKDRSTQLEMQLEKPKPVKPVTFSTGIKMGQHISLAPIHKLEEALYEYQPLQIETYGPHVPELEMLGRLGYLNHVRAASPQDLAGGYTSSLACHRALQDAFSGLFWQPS
procedureDetails: In vitro CDK7 assay, potency of irreversible covalent inhibitors (kinact/KI), coupled PK/LDH ADP readout at 340 nm
experimentalContext: read-out: CDK7 (20 nM enz.) (kinact/KI, M^−1*s^−1), 20 nM enzyme
quantity: kinact/KI (M⁻¹ s⁻¹)

• C=CC(=O)N1CC[C@@H](N2CC(c3cc4c(c(C(F)(F)F)n3)OCc3c(N5CCOCC5)ccnc3N4)C2)C1 (single isomer, unassigned) = 1380
• C=CC(=O)N1CCC(N2CC(c3cc4c(c(C5CC5)n3)O[C@H](C)c3c(N5CCOCC5)ccnc3N4)C2)CC1 (single isomer, unassigned) = 469
• C=CC(=O)N1CC[C@H](N2CC(c3cc(C)c4c(c3)Nc3nccc(N5CCOCC5)c3CO4)C2)C1 (single isomer, unassigned) [Compound 329] = 1570
• CC#CC(=O)N1CC(n2cc(-c3cc4c(c(C)n3)O[C@@H](C)c3c(N5CCOCC5)ccnc3N4)cn2)C1 (single isomer, unassigned) = 282
• C=CC(=O)N=S1(=O)CCN(c2ccnc3c2COc2ccc(C4CCN(C5CN(C(=O)C=C)C5)CC4)cc2N3)CC1 = 11.2
• C=CC(=O)N1CC[C@H](N2CC(c3cc4c(c(C(F)(F)F)n3)OCc3c(-c5cnn(C)c5)ccnc3N4)C2)C1 (single isomer, unassigned) = 1270
• C=CC(=O)N1CC[C@@H](N2CC(c3cc4c(c(C5CC5)n3)OCc3c(N5CCOCC5)ccnc3N4)C2)C1 (single isomer, unassigned) = 2950
• C#CCCN(C)C/C=C/C(=O)N1CC(N2CCC(c3ccc4c(c3)Nc3nccc(N5CCOCC5)c3[C@@H](C)O4)CC2)C1 (single isomer, unassigned) = 15.3
• C=CC(=O)N1CC(N2CCC(c3ccc4c(c3)Nc3nccc(C5CCOCC5)c3[C@@H](C)O4)CC2)C1 (single isomer, unassigned) = 1760
• C=CC(=O)Nc1ccc(C(=O)Nc2ccc3c(c2)Nc2nccc(C4CCOCC4)c2CO3)cc1 = 1270
• C=CC(=O)N1CC(N2CCC(O)(c3cc(C)c4c(c3)Nc3nccc(N5CCOCC5)c3CO4)CC2)C1 = 878
• CC#CC(=O)N1CC[C@H](N2CC(c3cc(C)c4c(c3)Nc3nccc(N5CCOCC5)c3[C@@H](C)O4)C2)C1 (single isomer, unassigned) = 619

---

targetUnderTest: CDK7/cyclinH/MAT1 trimeric complex (Homo sapiens)
procedureDetails: In vitro CDK7 assay, potency of irreversible covalent inhibitors (kinact/KI), coupled PK/LDH ADP readout at 340 nm
experimentalContext: read-out: CDK7 (kinact/KI, M^−1*s^−1), potency of irreversible covalent inhibitors; 1 mM ATP, room temperature; averaged values over all measurements
quantity: kinact/KI (M⁻¹ s⁻¹)

- C=CC(=O)N1CC[C@H]2CN(c3ccc4c(c3)Nc3nccc(N5CCOCC5)c3CO4)CC[C@H]21 (relative stereo): 28.7
- C=CC(=O)N1CC(c2nc(C)c(-c3ccc4c(c3)Nc3nccc(N5CCOCC5)c3CO4)c(C)n2)C1: 1110
- C=CC(=O)N1CC(c2ncc(-c3ccc4c(c3)Nc3nccc(N5CCOCC5)c3CO4)cn2)C1: 1040
- C=CC(=O)Nc1ccc(C(=O)Nc2ccc3c(c2)Nc2ncc(C)c(C4CCOCC4)c2CO3)cc1: 609
- C=CC(=O)N1CC(N2CCC(c3ccc4c(c3)Nc3nccc(N5CCOC[C@@H]5C)c3CO4)CC2)C1 (single isomer, unassigned): 578
- O=C(/C=C/CN1CCOCC1)N1CC(N2CCC(c3ccc4c(c3)Nc3nccc(N5CCOCC5)c3CO4)CC2)C1: 518
